Source listed as PubChem BioAssay (EPA / NIEHS).

Test: CCTE_Deisenroth_5AR_NBTE_acceptor: CCTE's 5alpha-reductase NanoBRET Target Engagement Assay - Autofluorescence Screen, Deisenroth Lab (AID 2284321);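 note: compound fluorescence in the acceptor channel under 460 nm excitation flags autofluorescence artifacts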
Details: actives raise or lower the signal
The source made the active and inactive calls. Rule for the calls: active = hit-call score of the fitted dose curve at least 0.9, where 1 is the maximum; inactive = score below 0.9.
Select the correct class. Options are label 1 (active), label 0 (inactive) and nothing else.

Consider the worked cases shown below.
{"columns": ["molecule", "assigned-class"],
 "data": [
  ["CN(C)c1ccc(N=NS(=O)(=O)O)cc1", "label 0"],
  ["CCOC(=O)c1ccc(C2CCC(NC[C@H](O)COc3ccc(O)c(NS(C)(=O)=O)c3)CC2)cc1 (some centres undefined)", "label 1"],
  ["O=C(OC[C@H]1O[C@@H](OC(=O)c2cc(O)c(O)c(OC(=O)c3cc(O)c(O)c(O)c3)c2)[C@H](OC(=O)c2cc(O)c(O)c(OC(=O)c3cc(O)c(O)c(O)c3)c2)[C@@H](OC(=O)c2cc(O)c(O)c(OC(=O)c3cc(O)c(O)c(O)c3)c2)[C@@H]1OC(=O)c1cc(O)c(O)c(OC(=O)c2cc(O)c(O)c(O)c2)c1)c1cc(O)c(O)c(OC(=O)c2cc(O)c(O)c(O)c2)c1", "label 0"]
]}

## Input Please state the recorded outcome for this molecule: `CCC(C)(C)C(=O)O[C@H]1C[C@@H](C)C=C2C=C[C@H](C)[C@H](CC[C@@H]3C[C@@H](O)CC(=O)O3)[C@H]21`
## Output label 0
